Test system: Fibroblast
Assay: Multiplex assay against human fibroblast
Assay type: toxicity, cell-based
Details: 48 h, 1 µM, compound concentration 1 uM, replicate 2
observable: Population Pyknosed Nuclei (%)
Entry format: amount then unit.

System Fibroblast. Read-out Population Pyknosed Nuclei (%). Item CN(C)CC#Cc1ccc(OCCCc2sc(N3CCc4cccc(C(=O)Nc5nc6ccccc6s5)c4C3)nc2C(=O)O)c(F)c1 . Report value.
10%

Report the value of Population Pyknosed Nuclei (%) obtained on Fibroblast for Cn1cc(-c2[nH]c3cc(NC(=O)[C@H](N)C4CCCCC4)cc4c3c2C=NNC4=O)cn1 .
2%

Retrieve Population Pyknosed Nuclei (%) on Fibroblast; query COc1ncc(-c2ccc3nccc(-c4ccnnc4)c3c2)cc1NS(=O)(=O)c1ccc(F)cc1F
0%

###

Tested on: U2OS
Experiment: Multiplex assay against U2OS
Type: toxicity, cell-based
Details: human, 12 h, 1 µM, compound concentration 1 uM, replicate 2
Give measured Population Apoptotic (%) for each item. Keep answers brief.
Report as a plain number; the unit % is understood.

Please look at this compound and report its Population Apoptotic (%): COc1cccc([C@@H](C)NCCCc2ccccc2Cl)c1.Cl [TECALCET HYDROCHLORIDE]
16

Supply recorded Population Apoptotic (%) for Cc1cc(C)cc(-c2cnc3cc(Cl)c(-c4cccc(O)c4)cc3c2OCCCN)c1 here.
44

Give me measured Population Apoptotic (%), please, for this compound: C[C@@H](NCCCc1cccc(C(F)(F)F)c1)c1cccc2ccccc12.Cl [CINACALCET HYDROCHLORIDE]
33

Tell us which Population Apoptotic (%) value is on record for OC1(c2ccc(Cl)cc2)CCN(Cc2c[nH]c3ccccc23)CC1
0

Hello, please tell me recorded Population Apoptotic (%) for this one: C=CC(=O)Nc1cccc(C(=O)Nc2ccc(Nc3cc(-c4[nH]c(SC)nc4C)ccn3)cc2)c1
0

Consider the compound C[C@@]1(C(=O)Nc2ccc(F)nc2)CCCN1c1nc(Nc2cc(C3CC3)n[nH]2)c2cccn2n1 . State its measured Population Apoptotic (%).
16

Read off the recorded Population Apoptotic (%) for Cc1nc(Nc2n[nH]c3c2CN(C(=O)N[C@H](CN(C)C)c2ccccc2)C3(C)C)c2sccc2n1
20

Provide measured Population Apoptotic (%) value, entry: COc1cc2nccc(Oc3ccc(NC(=O)Nc4cc(C)on4)c(Cl)c3)c2cc1OC.O
0

Report measured Population Apoptotic (%); entry is COc1cc(-n2cnc3cc(-c4ccc(Cl)cc4)sc3c2=O)ccc1OCCN1CCCC1
71

Please list Population Apoptotic (%) recorded for the compound CC(C)(O)CNc1ncc(-c2ccnc(Nc3ccnc(Cl)c3)n2)c(CC2CC2)n1
9

Give a short answer stating reported Population Apoptotic (%) for CNc1nc(NCc2ccc(NS(C)(=O)=O)cc2Cl)cc(-c2ccccn2)n1 .
33

Dear colleague, please send me the reported Population Apoptotic (%) for Cc1[nH]c(/C=C2\C(=O)Nc3ccc(S(=O)(=O)N(C)c4cccc(Cl)c4)cc32)c(C)c1C(=O)N1CCN(C)CC1 when you can.
100

Indicate the recorded Population Apoptotic (%) value for this compound: Cc1csc2c(N[C@@H](C)CN3CCN(S(=O)(=O)c4ccc(Cl)c(Cl)c4)CC3)ncnc12
16

Answer with the recorded Population Apoptotic (%) of CN(C)CC#Cc1ccc(OCCCc2sc(N3CCc4cccc(C(=O)Nc5nc6ccccc6s5)c4C3)nc2C(=O)O)c(F)c1 only.
66

Identify Population Apoptotic (%) associated with the compound Cc1nc(-c2cn3c(n2)-c2ccc(-c4cnn(C(C)(C)C(N)=O)c4)cc2OCC3)n(C(C)C)n1
16

Retrieve Population Apoptotic (%) measured for Cn1cc(-c2[nH]c3cc(NC(=O)[C@H](N)C4CCCCC4)cc4c3c2C=NNC4=O)cn1 and print it.
33

Specify Population Apoptotic (%) for CN1CCN(CCOc2cc(OC3CCOCC3)c3c(Nc4c(Cl)ccc5c4OCO5)ncnc3c2)CC1 and stop.
70
